- target_entity: LIM domain kinase 1 (Homo sapiens, UniProt P53667); note: in the data inactive means no Kd found up to 30 µM
- Sequence (P53667 whole entry, the tested form may be a part): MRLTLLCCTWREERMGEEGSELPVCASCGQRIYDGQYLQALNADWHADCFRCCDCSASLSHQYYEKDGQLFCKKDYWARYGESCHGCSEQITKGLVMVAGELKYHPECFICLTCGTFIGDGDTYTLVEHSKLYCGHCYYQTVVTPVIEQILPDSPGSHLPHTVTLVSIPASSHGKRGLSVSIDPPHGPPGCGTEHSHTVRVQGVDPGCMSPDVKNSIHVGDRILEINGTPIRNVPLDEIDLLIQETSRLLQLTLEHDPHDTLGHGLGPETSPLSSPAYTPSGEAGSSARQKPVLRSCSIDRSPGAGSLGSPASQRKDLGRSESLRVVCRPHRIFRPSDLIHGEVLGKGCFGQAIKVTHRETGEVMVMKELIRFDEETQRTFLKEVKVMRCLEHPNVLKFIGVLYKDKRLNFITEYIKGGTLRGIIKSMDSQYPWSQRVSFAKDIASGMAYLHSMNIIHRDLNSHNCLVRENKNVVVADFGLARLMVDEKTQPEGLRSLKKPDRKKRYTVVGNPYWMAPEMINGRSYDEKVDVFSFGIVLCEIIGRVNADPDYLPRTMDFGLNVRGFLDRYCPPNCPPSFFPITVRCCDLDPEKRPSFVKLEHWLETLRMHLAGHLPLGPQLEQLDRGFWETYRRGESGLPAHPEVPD
Calls of active or inactive are those of the source.
Can you answer with just one of these options? 1 (active), -1 (inactive)

Completed entries (count: 2):
[[record]]
molecule = "O=C(O)[C@]1(Cc2cccc(Nc3nccs3)n2)CC[C@@H](Oc2cccc(Cl)c2F)CC1"
target_entity = "LIM domain kinase 1 (Homo sapiens, UniProt P53667)"
assigned_label = 1

[[record]]
molecule = "Cc1ccc(S(=O)(=O)Nc2nc3ccccc3nc2Nc2ccc3nsnc3c2)cc1"
target_entity = "LIM domain kinase 1 (Homo sapiens, UniProt P53667)"
assigned_label = -1


[in] // param item: CN(C)C(=O)c1cc2cnc(Nc3ccc(N4CCNCC4)cn3)nc2n1C1CCCC1 ; yields the recorded call
[out] -1

[in] // param item: Cn1ncc(Cl)c1-c1cc(C(=O)N[C@H](CN)Cc2cccc(F)c2)sc1Cl ; yields the recorded call
[out] -1

[in] // param item: Cc1nc(N)sc1-c1ccnc(Nc2ccc(N3CCOCC3)cc2)n1 ; yields the recorded call
[out] 1

[in] // param item: CCn1c(=O)c(-c2cc[nH]n2)cc2c(C)nc(N)nc21 ; yields the recorded call
[out] -1

[in] // param item: COc1cc2nccc(Oc3ccc(NC(=O)NC4CC4)c(Cl)c3)c2cc1C(N)=O ; yields the recorded call
[out] -1

[in] // param item: Cc1ccc(NC(=O)c2ccc(CN3CC[C@H](N(C)C)C3)c(C(F)(F)F)c2)cc1Nc1nccc(-c2cncnc2)n1 ; yields the recorded call
[out] -1

----------
- target_entity: Myosin light chain kinase, smooth muscle (Homo sapiens, UniProt Q15746); note: in the data inactive means no Kd found up to 30 µM
- Sequence (Q15746 whole entry): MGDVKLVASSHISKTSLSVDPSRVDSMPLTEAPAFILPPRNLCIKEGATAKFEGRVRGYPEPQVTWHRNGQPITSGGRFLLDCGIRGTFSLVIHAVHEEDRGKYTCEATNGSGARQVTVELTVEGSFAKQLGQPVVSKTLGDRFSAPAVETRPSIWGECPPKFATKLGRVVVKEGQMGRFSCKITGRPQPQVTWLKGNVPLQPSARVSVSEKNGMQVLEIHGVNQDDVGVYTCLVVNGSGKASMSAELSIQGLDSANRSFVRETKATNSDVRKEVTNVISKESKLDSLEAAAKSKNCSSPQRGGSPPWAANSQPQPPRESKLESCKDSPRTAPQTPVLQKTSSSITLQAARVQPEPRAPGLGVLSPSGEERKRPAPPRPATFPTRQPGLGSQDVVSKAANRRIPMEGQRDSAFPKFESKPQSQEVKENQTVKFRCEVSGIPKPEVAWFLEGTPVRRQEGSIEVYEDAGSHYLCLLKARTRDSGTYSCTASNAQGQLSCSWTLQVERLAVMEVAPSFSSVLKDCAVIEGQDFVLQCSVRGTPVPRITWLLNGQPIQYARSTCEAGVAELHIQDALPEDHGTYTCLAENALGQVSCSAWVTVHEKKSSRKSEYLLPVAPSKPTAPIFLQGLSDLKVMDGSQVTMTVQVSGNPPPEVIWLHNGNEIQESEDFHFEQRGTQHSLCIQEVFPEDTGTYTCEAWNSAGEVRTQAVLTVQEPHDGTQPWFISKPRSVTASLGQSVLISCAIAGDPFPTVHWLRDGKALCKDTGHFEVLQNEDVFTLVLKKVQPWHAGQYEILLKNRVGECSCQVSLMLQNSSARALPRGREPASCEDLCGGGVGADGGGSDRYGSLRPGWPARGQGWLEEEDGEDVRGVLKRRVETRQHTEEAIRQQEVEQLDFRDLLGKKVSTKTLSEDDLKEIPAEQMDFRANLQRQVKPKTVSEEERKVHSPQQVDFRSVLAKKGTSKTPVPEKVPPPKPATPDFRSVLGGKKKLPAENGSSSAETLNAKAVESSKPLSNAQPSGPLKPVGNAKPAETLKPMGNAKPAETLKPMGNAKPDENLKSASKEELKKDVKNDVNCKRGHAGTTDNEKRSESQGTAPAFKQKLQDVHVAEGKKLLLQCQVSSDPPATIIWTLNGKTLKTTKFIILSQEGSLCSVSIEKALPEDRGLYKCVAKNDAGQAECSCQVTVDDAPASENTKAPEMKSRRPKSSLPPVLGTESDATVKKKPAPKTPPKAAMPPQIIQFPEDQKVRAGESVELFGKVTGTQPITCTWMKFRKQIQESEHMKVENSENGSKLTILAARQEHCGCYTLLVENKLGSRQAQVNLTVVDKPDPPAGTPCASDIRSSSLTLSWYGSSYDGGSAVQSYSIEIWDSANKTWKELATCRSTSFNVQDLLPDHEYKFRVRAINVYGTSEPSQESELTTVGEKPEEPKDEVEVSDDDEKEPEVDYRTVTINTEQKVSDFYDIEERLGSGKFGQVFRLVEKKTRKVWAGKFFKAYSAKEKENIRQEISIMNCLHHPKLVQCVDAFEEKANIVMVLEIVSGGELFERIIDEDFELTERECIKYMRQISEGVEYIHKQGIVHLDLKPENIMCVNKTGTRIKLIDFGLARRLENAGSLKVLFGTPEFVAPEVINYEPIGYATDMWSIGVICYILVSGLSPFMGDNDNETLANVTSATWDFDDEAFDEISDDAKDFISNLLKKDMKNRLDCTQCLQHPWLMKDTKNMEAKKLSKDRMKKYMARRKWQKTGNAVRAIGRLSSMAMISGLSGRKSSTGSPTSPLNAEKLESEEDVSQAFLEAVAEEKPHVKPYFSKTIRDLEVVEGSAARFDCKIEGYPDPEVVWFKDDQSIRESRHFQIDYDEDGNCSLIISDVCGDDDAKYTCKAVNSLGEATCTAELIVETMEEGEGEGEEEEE
Active and inactive are the calls of the source.
We begin with a simple list: items and their reported Kd.

[[record]]
compound = "O=C(Nc1cccc(Cl)c1)Nc1ncc(CCNc2ncnc3ccsc23)s1 [SNS-314]"
parameter = "Kd"
result = "> 30 µM (inactive)"


[in] State its Kd for this compound: CC[C@H](Nc1ncnc2[nH]cnc12)c1nc2cccc(F)c2c(=O)n1-c1ccccc1 [IDELALISIB]
[out] > 30 µM (inactive)

[in] State its Kd for this compound: COC(=O)N[C@@H](C)CNc1nccc(-c2cn(C(C)C)nc2-c2cc(Cl)cc(NS(C)(=O)=O)c2F)n1 [ENCORAFENIB]
[out] > 30 µM (inactive)

----------
- target_entity: LIM domain kinase 1 (Homo sapiens, UniProt P53667); note: in the data inactive means no Kd found up to 30 µM
Activity calls are given as the source filed them.
Can you answer with just one of these options? active, inactive

Completed entries (count: 3):
[[record]]
compound_smiles = "CO[C@H]1C[C@@H]2CC[C@@H](C)[C@@](O)(O2)C(=O)C(=O)N2CCCC[C@H]2C(=O)O[C@H]([C@H](C)C[C@@H]2CC[C@@H](OCCO)[C@H](OC)C2)CC(=O)[C@H](C)/C=C(\\C)[C@@H](O)[C@@H](OC)C(=O)[C@H](C)C[C@H](C)/C=C/C=C/C=C/1C"
assigned_label = "inactive"

[[record]]
compound_smiles = "COc1cc(N2CCC(N3CCN(C)CC3)CC2)ccc1Nc1ncnc(Nc2ccccc2S(=O)(=O)C(C)C)n1"
assigned_label = "active"

[[record]]
compound_smiles = "Cc1cc(-c2cc(O)ccc2Cl)cc2nnc(Nc3ccc(OCCN4CCCC4)cc3)nc12"
assigned_label = "inactive"


# ---- query compound ----
[in] // param item: CN1CCC(COc2cnc(-c3cccc(Cn4nc(-c5cccc(C#N)c5)ccc4=O)c3)nc2)CC1 ; yields the recorded call
[out] inactive
